B1: Twister Ribozyme (parent)
chain: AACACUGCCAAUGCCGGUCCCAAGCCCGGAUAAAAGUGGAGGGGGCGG

variants of: B1; test: self-cleavage, relative activity (ratio to wild type); higher = more cleavage; co-transcriptional
READOUT_TYPE: self-cleavage

INSERT INTO results (construct_sequence, assay_result) VALUES
  ('AACACUGCCAAUGCCGGUCCCAAGCCCGGAUAAAGCUGGAGGGGGCGG [A35G G36C]', 0.491),
  ('AACACUGCCAAUGCCGGUCCCAAGCCCGCAUAAAAGUGGAGGGGGCGC [G29C G48C]', 0.688),
  ('AACACUGCCAAUGCCGGUCCCAAGCCCGGAAAAAAGUGGAGGGGGCAG [U31A G47A]', 0.628),
  ('AACACUGACAAUGCCGGUCCCAAGCCCGGGUAAAAGUGGAGGGGGCGG [C8A A30G]', 0.567),
  ('AACACUGCCAAUGCCGGUCCCAAGCCCGGAUAAAAGCGGAGGGGGUGG [U37C C46U]', 0.627),
  ('AACACUGCCAAUGCCGGUCCCAAGCACGGAUAAAAGUGGAGGGUGCGG [C26A G44U]', 0.456),
  ('AACACUGCCAGUGCCGGUCCCAAGCCCGGAUAAAAGUGGAGGGGGCGG [A11G]', 0.932),
  ('AACACUGCCACUGCCGGUCCCAAGCCCGGAUAAAAGUGGAGGGGGCGC [A11C G48C]', 1.05),
  ('AGCACUGCCAAUGCCGGUCCCAAGCCCGGAUAAAAGUGGACGGGGCGG [A2G G41C]', 0.141),
  ('AACACUGCCAACGCCGGUCCCAAGCCCGGAUAGAAGUGGAGGGGGCGG [U12C A33G]', 1),
  ('AAGACUGCCAAUGCCGGUCCCAAGCCCGGAUAAAAGUGGAGGGGGCUG [C3G G47U]', 0.361);
